# Read-out: UDP glucuronosyltransferase (UGT1A6), UGT1A6 (gene 54578)
# assay-text: LTEA_HepaRG_UGT1A6: Life Technologies and Expression Analysis (LTEA) Assay for UDP glucuronosyltransferase (UGT1A6) using HepaRG (AID 2283539)
# measurement-conditions: mRNA level, 48 h; actives raise or lower the signal
The source made the active and inactive calls. Rule for the calls: active = hit-call score of the fitted dose curve at least 0.9, where 1 is the maximum; inactive = score below 0.9.
metric-name: AC50

The cases that follow already have their AC50 on record.
[
  {
    "compound": "O=C=NCCCCCCN=C=O",
    "metric-name": "AC50",
    "recorded-value": "inactive"
  },
  {
    "compound": "CCCOC(=O)c1cc(O)c(O)c(O)c1",
    "metric-name": "AC50",
    "recorded-value": "inactive"
  },
  {
    "compound": "O=C1CCC(C2CCCCC2)CC1",
    "metric-name": "AC50",
    "recorded-value": "inactive"
  },
  {
    "compound": "O=C(O)Cn1c(=O)n(Cc2ccc(Br)cc2F)c(=O)c2ccc(Cl)cc21",
    "metric-name": "AC50",
    "recorded-value": "inactive"
  },
  {
    "compound": "NCc1cccc(C2CCN(C(=O)c3ccc(C#Cc4ccccc4F)o3)CC2)c1",
    "metric-name": "AC50",
    "recorded-value": "93.1 µM (active)"
  },
  {
    "compound": "NC(=O)c1nc(-c2cccc(-c3cc(F)ccc3OCC(F)(F)C(F)(F)F)c2)n[nH]1",
    "metric-name": "AC50",
    "recorded-value": "50 µM (active)"
  },
  {
    "compound": "CCCCCCCCOC(=O)c1cc(O)c(O)c(O)c1",
    "metric-name": "AC50",
    "recorded-value": "inactive"
  },
  {
    "compound": "CCCCCCCCOc1ccc(C(=O)c2ccccc2)c(O)c1",
    "metric-name": "AC50",
    "recorded-value": "inactive"
  },
  {
    "compound": "CC(O)CC(C)(C)O (stereo not drawn)",
    "metric-name": "AC50",
    "recorded-value": "inactive"
  },
  {
    "compound": "O=c1[nH]sc2ccccc12",
    "metric-name": "AC50",
    "recorded-value": "inactive"
  }
]

### Prompt Would you kindly share the measured AC50 for Cc1ncc(CO)c(CO)c1O ?
### Response inactive

### Prompt Another compound to check: CC(=O)N1CCN(c2ccc(OC[C@H]3CO[C@](Cn4ccnc4)(c4ccc(Cl)cc4Cl)O3)cc2)CC1
### Response 30.8 µM (active)

### Prompt Another compound to check: Clc1cc(Cl)c2c(c1)N=C1CCCCCN1C2
### Response inactive

====

# Read-out: CD40, CD40 (gene 958)
# assay-text: BSK_SAg_CD40: BioMAP Diversity Plus: SAg Assay for CD40 Biomarker Activity (AID 2283088)
# measurement-conditions: primary human HUVEC with PBMC; actives raise or lower the signal
Calls of active or inactive are those of the source. How the source made its calls: active means hit-call score of the fitted dose curve at least 0.9, where 1 is the maximum; inactive means score below 0.9.
Entry note: the call must match one of active, inactive

Solved cases below.
[
  {
    "molecule": "OCCO",
    "class-name": "inactive"
  },
  {
    "molecule": "Oc1ccccc1",
    "class-name": "inactive"
  },
  {
    "molecule": "CC(C)(O)c1ccc(CNC(=O)c2cccnc2Oc2ccc3nonc3c2)cc1",
    "class-name": "inactive"
  },
  {
    "molecule": "Cc1ccc(C(C)C)cc1",
    "class-name": "inactive"
  },
  {
    "molecule": "Cc1oc2c(NC(=O)c3c(Cl)cccc3Cl)cccc2c1C(C)(C)O",
    "class-name": "active"
  },
  {
    "molecule": "CCCC(=O)OCCC(C)C",
    "class-name": "inactive"
  },
  {
    "molecule": "CN1C(=O)N(c2ccccc2Br)Cc2cnc(Nc3ccc4c(c3)OCC(CO)O4)nc21 (stereo not given)",
    "class-name": "active"
  },
  {
    "molecule": "COc1cc(C(=O)NC2CCN(C)CC2)ccc1Nc1ncc2c(n1)N(C1CCCC1)CC(F)(F)C(=O)N2C",
    "class-name": "active"
  },
  {
    "molecule": "O=c1[nH]sc2ccccc12",
    "class-name": "active"
  },
  {
    "molecule": "O=c1c(-c2ccc(O)cc2)coc2cc(O)cc(O)c12",
    "class-name": "active"
  }
]

### Prompt Assay outcome for OC12N=C(c3ccccc3)SC1Cc1cc(Cl)ccc12 (stereo not given) : what was it?
### Response active

### Prompt Another molecule to check: CN(C)c1ccc(C(=C2C=CC(=[N+](C)C)C=C2)c2ccc(N(C)C)cc2)cc1
### Response active

### Prompt Another molecule to check: CC(C)(C)c1cc(/C=C2\SC(N)=NC2=O)cc(C(C)(C)C)c1O
### Response active

### Prompt Another molecule to check: COc1cccc([C@H](O)C2CCN(CCc3ccc(F)cc3)CC2)c1OC
### Response inactive

### Prompt Another molecule to check: CCCCCCCC[Si](OCC)(OCC)OCC
### Response inactive

### Prompt Another molecule to check: O=c1ccc2ccccc2o1
### Response inactive

### Prompt Another molecule to check: CC(C)(C)c1csc(-c2cc3cc(OCc4ccccc4CC(=O)O)ccc3o2)n1
### Response active

### Prompt Another molecule to check: CCCCOC(=O)CC(CC(=O)OCCCC)(OC(C)=O)C(=O)OCCCC
### Response inactive

### Prompt Another molecule to check: CN(C[C@@H](CC[N+]12CCC(C3CCCCC3)(CC1)CC2)c1ccc(Cl)c(Cl)c1)C(=O)c1cc(C(F)(F)F)cc(C(F)(F)F)c1
### Response active

### Prompt Another molecule to check: O=C(O)c1ccccc1-n1cc(C(=O)O)c(=O)c2cc(Nc3c(F)cc(F)cc3Cl)c(Cl)cc21
### Response inactive

### Prompt Another molecule to check: Cc1ncc(CO)c(CO)c1O
### Response inactive

### Prompt Another molecule to check: CC1=CC(=O)/C(=C(/C)O)C(=O)O1
### Response inactive

### Prompt Another molecule to check: Cc1c2ccccc2c(C)c2c1ccc1ccccc12
### Response active

### Prompt Another molecule to check: Clc1cc(Cl)c2c(c1)N=C1CCCCCN1C2
### Response inactive

### Prompt Another molecule to check: c1ccc2ccccc2c1
### Response inactive

====

# assay-text: APR_HepG2_NuclearSize_72hr: Apredica 72-hour HepG2 Assay for Nuclear Size (AID 2282925)
# measurement-conditions: high-content imaging, actives raise or lower the signal
Active and inactive are the calls of the source. The calls were made as follows: active = hit-call score of the fitted dose curve at least 0.9, where 1 is the maximum; inactive = score below 0.9.
metric-name: AC50

The cases that follow already have their AC50 on record.
[
  {
    "smiles-data": "CCOC(=O)O[C@H](C)OC(=O)c1ccc2c(c1)cc(C(=O)NC1CCN(C(C)C)CC1)n2Cc1cc(-c2ccc(Cl)s2)on1",
    "metric-name": "AC50",
    "recorded-value": "inactive"
  },
  {
    "smiles-data": "COc1cccc([C@H](O)C2CCN(CCc3ccc(F)cc3)CC2)c1OC",
    "metric-name": "AC50",
    "recorded-value": "inactive"
  },
  {
    "smiles-data": "CCN(Cc1cccnc1)C(=O)c1cccc(Cl)c1[C@]1(C)C(=O)N(Cc2ccc(OC)cc2OC)c2ccc(Cl)cc21",
    "metric-name": "AC50",
    "recorded-value": "inactive"
  },
  {
    "smiles-data": "CN1C(=O)CC[C@H]1c1cccnc1",
    "metric-name": "AC50",
    "recorded-value": "inactive"
  }
]

Query molecule follows.
### Prompt Would you kindly share the measured AC50 for c1ccc(C[n+]2cccc3ccccc32)cc1 ?
### Response 68.9 µM (active)

====

# Lookup of reported AC50 keyed by entry
# System: SERPINA7 (gene 6906)
# assay-text: CCTE_GLTED_hTBG: CCTE's human Thyroxine-binding Globulin (TBG) Inhibition Assay, Great Lakes Toxicology and Ecology Division (GLTED) Lab (AID 2284343);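 note: active chemicals lower fluorescence versus DMSO baseline by displacing probe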
Calls of active or inactive are those of the source. How the source made its calls: active means hit-call score of the fitted dose curve at least 0.9, where 1 is the maximum; inconclusive means response in the unintended direction; inactive means score below 0.9.

The cases that follow already have their AC50 on record.
[
  {
    "smiles-data": "O=C(O)Cc1cc(I)c(Oc2ccc(O)c(I)c2)c(I)c1",
    "AC50": "0.0733 µM (active)"
  },
  {
    "smiles-data": "NC(=O)c1nc(-c2cccc(-c3cc(F)ccc3OCC(F)(F)C(F)(F)F)c2)n[nH]1",
    "AC50": "3.35 µM (active)"
  },
  {
    "smiles-data": "CCCCCCCCOc1ccc(C(=O)c2ccccc2)c(O)c1",
    "AC50": "39.1 µM (active)"
  },
  {
    "smiles-data": "CC(C)(c1cc(Br)c(O)c(Br)c1)c1cc(Br)c(O)c(Br)c1",
    "AC50": "2.16 µM (active)"
  },
  {
    "smiles-data": "Cc1oc2c(NC(=O)c3c(Cl)cccc3Cl)cccc2c1C(C)(C)O",
    "AC50": "13.6 µM (active)"
  }
]

Query compound follows.
### Prompt Kindly state the measured AC50 obtained for CCCCCc1ccc(N)cc1 with SERPINA7 (gene 6906).
### Response 29.9 µM (active)
